So I've got a bunch of variants here, and I need their polymerase ribozyme fitness (log ratio) values.
B1: TPR 5TU (parent)
chain: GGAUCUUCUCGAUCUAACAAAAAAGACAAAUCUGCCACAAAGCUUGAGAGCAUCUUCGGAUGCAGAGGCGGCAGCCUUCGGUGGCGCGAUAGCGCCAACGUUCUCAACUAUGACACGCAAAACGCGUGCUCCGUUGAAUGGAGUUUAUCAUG

Variants of: B1
Experiment: polymerase ribozyme fitness, log enrichment relative to wild type (log ratio); higher = more active; in vitro selection for triplet polymerase activity
This sample holds only a part of the variants without activity.
Quick one: just the number, no unit, thanks!

Input: Determine from records and report polymerase ribozyme fitness (log ratio) for G50U U56A G94U A106G C116G C123U
Output: -0.9

Input: Determine from records and report polymerase ribozyme fitness (log ratio) for A16C C36U G59C
Output: -2.53

Input: Determine from records and report polymerase ribozyme fitness (log ratio) for C32G G94C
Output: -4.18

Input: Determine from records and report polymerase ribozyme fitness (log ratio) for C79G C95U
Output: -3.03

Input: Determine from records and report polymerase ribozyme fitness (log ratio) for G25U C76U
Output: -2.44

Input: Determine from records and report polymerase ribozyme fitness (log ratio) for U6C C105G U144C G152A
Output: -3.94
